Assay: chemical genetic growth profiling, strain panel (AID 1159580);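 note: tested at 20 µM; growth read once vehicle control cultures reached saturation at 30 °C; lower values mean less growth of the strain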
Conditions: S. cerevisiae deletion strains, growth OD, locus YMR058W, strain fet3
In all, about 5,500 compounds went through this assay and about 2,000 (36%) were called active. About 18% were inconclusive and are not listed. Cut-off read from the data, not from the text of the source: active = normalized growth mostly below about 0.91 (no sharp cut-off); inconclusive = no clear call, values can overlap the other calls; inactive = mostly above about 0.92. Some of the results follow.
I would appreciate it if you answered using one of these outcomes: active, inactive

compound	category
COc1ccc(/C=C/C(=O)c2cc(O)ccc2O)cc1	active

Entry CCC(COC(=O)c1cc(OC)c(OC)c(OC)c1)(c1ccccc1)N(C)C (stereo not given) : call = ? inactive

Each compound tested received a call. Report the one for CC1(C)C2CC(=O)O[C@@]3(C)C4=CC(=O)O[C@@H](c5ccoc5)[C@]4(C)CCC3[C@@]2(C)C=C[C@H]1O (stereo not given in full) . inactive

Recorded test outcome, item COc1ccc(C=CC(=O)c2ccc(O)cc2O)cc1OC inactive

Given CC[C@@H](C(=O)[C@@H](C)[C@@H](O)[C@H](C)[C@@H]1O[C@@H]([C@@H](CC)C(=O)O)CC[C@@H]1C)[C@H]1OC2(C=C[C@@H](O)[C@]3(CC[C@@](C)([C@H]4CC[C@](O)(CC)[C@H](C)O4)O3)O2)[C@H](C)C[C@@H]1C (stereo not given in full) , state the outcome it received in this test. inactive

So what was the verdict on COc1cc(/C=C/C(=O)O)cc(OC)c1OC in this test? inactive

Identify the outcome logged in this assay for the compound shown: COc1ccc(/C=C/C(=O)O)cc1OC inactive

Would you mind telling me which call this test gave CN(C)CCCO[C@H]1[C@@H](C(O)CO)OC2OC(C)(C)O[C@@H]21 (stereo not given in full) ? inactive

For this compound, state the assay outcome: COc1ccccc1OCC(O)CN1CCN(CC(=O)Nc2c(C)cccc2C)CC1 (stereo not given) inactive

Field: outcome | Entry: Nc1nc(N)c2nc(CNc3ccc(C(=O)NC(CCC(=O)O)C(=O)O)cc3)cnc2n1 (stereo not given) inactive

Which outcome was assigned to CCOC(=O)CCCCCCCCCCCCC1C=CCC1 (stereo not given) in this test? inactive
